assay-procedure: Pharmacokinetics of Compounds 16, 22 and 23
Type: in vivo, SCID/mice
test-parameters: SCID, mouse, plasma, 150 mg/kg; PO/150 mpk
property-label: Tmax (min)

>>> value("CC(C)C(=O)OC[C@H]1O[C@@H](n2cccnc2=O)[C@H](OC(=O)C(C)C)[C@@H]1OC(=O)C(C)C")
30
>>> value("CCCC(=O)OC[C@H]1O[C@@H](n2cccnc2=O)[C@H](OC(=O)CCC)[C@@H]1OC(=O)CCC")
30

----------
assay-procedure: Rat pharmacokinetics of Compound 12
Format: in vivo, SD rats
test-parameters: SD, plasma, IV, 10 mg/kg
property-label: clearance (mL/min/kg)
Use mL/min/kg as the unit, but write only the number.

Sample CCCC(=O)OC[C@H]1O[C@@](C#N)(n2ccc(N)nc2=O)[C@@H](O)[C@@H]1O ; clearance observed: 11.4

Source: patent US10500224B2
